The entries below come with measured IC50 values attached.
- Test system: SKOV3 ovarian carcinoma cells
- test name: Antiproliferative activity against SKOV3 (MTT)
- Type: cell-based
- experimental context: Homo sapiens, SK-OV-3, 72 h
readout kind: IC50

- compound: "COc1ccc(S(=O)(=O)N(Cc2ccccc2)c2cc(OC)c(OC)c(OC)c2)cc1N [Compound 45]"
  reading: "48 nM"
- compound: "CC(=O)O[C@H]1C(=O)[C@@]2(C)[C@H]([C@H](OC(=O)c3ccccc3)[C@]3(O)C[C@H](OC(=O)[C@H](O)[C@@H](NC(=O)c4ccccc4)c4ccccc4)C(C)=C1C3(C)C)[C@]1(OC(C)=O)CO[C@@H]1C[C@@H]2O [Paclitaxel, reference compound]"
  reading: "81 nM"
- compound: "COc1ccc(S(=O)(=O)N(C)c2cc(OC)c(OC)c(OC)c2)cc1N [Compound 42]"
  reading: "7 nM"
- compound: "CNc1ccc(S(=O)(=O)N(C)c2cc(OC)c(OC)c(OC)c2)cc1 [Compound 38]"
  reading: "46 nM"

* * *

Reported melting point values for a set of compounds

- compound: "COc1ccc(S(=O)(=O)Nc2cc(OC)c(OC)c(OC)c2)cc1 [Compound 1a]"
  melting point: "115 to 116 °C"
- compound: "CNc1ccc(S(=O)(=O)Nc2cc(OC)c(OC)c(OC)c2)cc1 [Compound 37]"
  melting point: "200 to 206 °C"
- compound: "COc1ccc(S(=O)(=O)N(C(C)=O)c2cc(OC)c(OC)c(OC)c2)cc1 [Compound 5]"
  melting point: "190 to 195 °C"
- compound: "CCOC(=O)CN(c1cc(OC)c(OC)c(OC)c1)S(=O)(=O)c1ccc(OC)cc1 [Compound 7]"
  melting point: "123 to 127 °C"
- compound: "COc1cc(N(C)S(=O)(=O)c2ccc(N(C)C)cc2)cc(OC)c1OC [Compound 29a]"
  melting point: "134 to 140 °C"
- compound: "COc1cc(N(CC(=O)O)S(=O)(=O)c2ccc(N(C)C)cc2)cc(OC)c1OC [Compound 34]"
  melting point: "168 to 170 °C"
- compound: "COc1cc(NS(=O)(=O)c2ccc([N+](=O)[O-])cc2)cc(OC)c1OC [Compound 25]"
  melting point: "138 to 140 °C"
- compound: "COc1ccc(S(=O)(=O)N(CC(=O)O)c2cc(OC)c(OC)c(OC)c2)cc1 [Compound 8]"
  melting point: "151 to 158 °C"
- compound: "COc1ccc(S(=O)(=O)N(C)c2cc(OC)c(OC)c(OC)c2)cc1 [Compound 2a]"
  melting point: "123 to 124 °C"
- compound: "CCN(c1cc(OC)c(OC)c(OC)c1)S(=O)(=O)c1ccc(OC)cc1 [Compound 3]"
  melting point: "140 to 143 °C"
- compound: "COc1ccc(S(=O)(=O)N(C)c2cc(OC)c(OC)c(OC)c2NC(C)=O)cc1 [Compound 16]"
  melting point: "205 to 210 °C"
- compound: "COc1cc(NS(=O)(=O)c2ccc(N)cc2)cc(OC)c1OC [Compound 26]"
  melting point: "177 to 179 °C"
- compound: "COc1ccc(S(=O)(=O)N(CC#N)c2cc(OC)c(OC)c(OC)c2)cc1N [Compound 44]"
  melting point: "139 to 145 °C"
